Assay: Drug uptake in Sprague-Dawley rat plasma at 1 mg/kg, po qd administered via gavage measured 7 hrs post last dose on day 14 by LC-MS/MS analysis
Assay type: ADME, organism-based

>  <Compound>
O=C(O)c1cc(F)c2nc(N3C4CCC3CC(OCc3c(-c5ccccc5OC(F)(F)F)noc3C3CC3)C4)sc2c1 (stereo unspecified)

>  <concentration at 7 h, nM>
40.5

$$$$

---

Assay: AUC (0 to 24 hrs) in Sprague-Dawley rat at 1 mg/kg, po qd administered via gavage measured on day 11 by LC-MS/MS analysis
Type: ADME, organism-based
Parameters: time < 24 hr, dose 1 mg/kg, route oral
Conditions: in vivo

>  <Compound>
O=C(O)c1cc(F)c2nc(N3C4CCC3CC(OCc3c(-c5ccccc5OC(F)(F)F)noc3C3CC3)C4)sc2c1 (stereo unspecified)

>  <AUC at 24 h (µM·h)>
0.562

$$$$
